experimental.system: recombinant Anxa1-His6 protein
Sequence (P10107 2-346): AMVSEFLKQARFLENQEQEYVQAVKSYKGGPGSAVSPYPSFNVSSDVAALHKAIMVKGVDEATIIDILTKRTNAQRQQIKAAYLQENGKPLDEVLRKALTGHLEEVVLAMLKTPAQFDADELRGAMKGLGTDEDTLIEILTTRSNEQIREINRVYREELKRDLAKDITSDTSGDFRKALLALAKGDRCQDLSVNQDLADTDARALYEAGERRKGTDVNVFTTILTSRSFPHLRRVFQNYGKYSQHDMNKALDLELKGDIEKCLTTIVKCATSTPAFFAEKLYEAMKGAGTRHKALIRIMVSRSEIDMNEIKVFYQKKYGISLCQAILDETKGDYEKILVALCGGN
protocol.notes: isothermal titration calorimetry, peptide injected into Anxa1-His protein, 23° C.; average over two Anxa1-His preparations
property.label: pKd
In textbook form, pKd equals minus log to base ten of the concentration in mol/L.

Please give measured pKd of the following entry: IFLLWQRKKKC [IF7K3C peptide (…)] 4.96
